Assay: Powder dissolution in SGF and SIF
Type: physicochemical
Conditions: simulated intestinal fluid (SIF) with 0.5% tween 80, aqueous with cosolvent or surfactant or cyclodextrin, thermodynamic from solid; SIF pH 6.8 containing 0.5% tween 80, 37 °C, 50 rpm; read-out: maximum solubility
property: solubility at 180 min (µg/mL)
Write the value in µg/mL as a bare number.

Task: What does the record list as solubility at 180 min for COc1cc(/C=C/C(=O)CC(=O)/C=C/c2ccc(O)c(OC)c2)ccc1O ?
Result: 24.5

----------
Assay: Oral pharmacokinetic study in rats
Type: in vivo
Conditions: Sprague Dawley, rat; fasted male rats, oral 200 mg/kg in soybean oil, plasma treated with β-glucuronidase/sulfatase, 0 to 8 h; read-out: AUC0–8
Description: The in vivo pharmacokinetic investigations of the CUR-L-CN co-crystal and the marketed CUR crystal were carried out in fasted male rats. […] After administration, approximately 0.4 mL of blood was collected from the orbit of the rats into heparinized tubes at 20 min, 40 min, 1 h, 1.5 h, 2.5 h, 4 h, 6 h, and 8 h. […] Subsequently, the supernatants were analyzed via HPLC/MS. […] The AUC0–t was calculated from plasma concentrations observed from 0 to 8 h using a linear trapezoidal approach.
property: AUC(0-t)
In your response, the unit should come after the numeric value.

Task: Need AUC(0-t) of COc1cc(/C=C/C(=O)CC(=O)/C=C/c2ccc(O)c(OC)c2)ccc1O , thanks.
Result: 110 ng·h/mL

----------
Assay: Powder dissolution in SGF and SIF
Format: physicochemical
Conditions: simulated gastric fluid (SGF) with 0.5% tween 80, aqueous with cosolvent or surfactant or cyclodextrin, thermodynamic from solid; SGF containing 0.5% tween 80, 37 °C, 50 rpm; read-out: maximum solubility
property: solubility at 180 min (µg/mL)
Record the value in µg/mL, omitting the unit from your answer.

Task: So what does the record say about solubility at 180 min for COc1cc(/C=C/C(=O)CC(=O)/C=C/c2ccc(O)c(OC)c2)ccc1O ?
Result: 48.2
